- Tested on: TAOK1
- CONDITION CONTEXT: concentration: 1 μM,replicates: in singlicate; n = 1;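 further: KINOMEscan kinase panel screen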
EXPERIMENTAL READOUT: %Inh
Your answer should be a number followed by the unit of measure.

Quick note, %Inh for Cn1ccc2ncnc(Oc3ccc(NC(=O)Nc4cc(C(C)(C)C)on4)c(Cl)c3)c21 landed at 0%

Entry Cc1ccc(C(=O)Nc2ccc(Oc3ccc4nc(NC(=O)C5CC5)cn4c3)c(F)c2)c(=O)n1-c1ccccc1 — recorded %Inh = 0%

Lookup result for Cn1ccc2ncnc(Oc3ccc(NC(=O)Nc4cccc(C(F)(F)F)c4)c(Cl)c3)c21 ; measured %Inh: 0%

// recorded %Inh for C[C@@H](Oc1cc(-n2cnc3cc(-c4cnn(C)c4)ccc32)sc1C(N)=O)c1ccccc1Cl : 0%

In plain terms, O=c1[nH]cc(-c2ccc(O)cc2)c2sc(-c3ccncc3)cc12 has a documented %Inh of 14%

Sure, the documented %Inh for CCNCC(Cc1ccccc1)NC(=O)c1cc(Br)c(-c2ccnc3[nH]ccc23)s1.Cl.Cl (centres unmarked) is 54%

Value of measured %Inh for the entry CCn1c(-c2nonc2N)nc2cncc(Br)c21 : 46%

Record N#Cc1cccc(C(=O)NC2CCN(c3ccnc(Nc4ccc(F)cc4)n3)C2)c1 (centres unmarked) . Reported %Inh: 0%

###

For each record, write down the corresponding %Inh.
- Test system: CTK
- Construct: gene MATK
- CONDITION CONTEXT: concentration: 1 μM,replicates: in singlicate; n = 1
Could you give me the number in %? Just the number is fine.

Item COc1cc2c(Nc3ccc(NC(=O)c4ccccc4)cc3)ncnc2cc1OCCCN1CCOCC1 ; assay system CTK; %Inh reported as 32

For the molecule Cc1ccc2c(-c3ccnc(Nc4ccc(C(F)(F)F)cc4)n3)cnn2n1 , the measured %Inh on CTK was 24

Per the reported CTK data, C[C@@H]1CNc2c(sc3ccc4nc(-c5ccncc5)ccc4c23)C(=O)N1 has %Inh of 0

For CC(C(=O)NC1CCN(c2ccnc(Nc3ccc(F)cc3)n2)C1)c1ccc(Cl)cc1 (centres unmarked) on CTK, measured %Inh was 0

Known value: CTK %Inh of the molecule FC(F)(F)c1cc(Br)cc(Nc2nccc(-c3cnn4ncccc34)n2)c1 equals 0

###

- Test system: PKN2
- CONDITION CONTEXT: concentration: 1 μM,replicates: in singlicate; n = 1
I'd appreciate it if you could supply %Inh values for the items below.
Provide only the numeric value, understood in %.

Item: O=C(NCC1CC1)c1ccc(-c2cc(C(=O)NC3CC3)ccc2F)cc1 | %Inh: 0

Measured %Inh of O=C(Nc1ccccc1)c1cccc(Oc2ccc3nccn3n2)c1 : 29

%Inh reported for this compound CCCC(=O)Nc1n[nH]c2ncccc12 : 9

According to the records, this compound CN(c1cccc(CNc2nc(Nc3ccc4c(c3)CC(=O)N4)ncc2C(F)(F)F)c1)S(C)(=O)=O displays %Inh of 19

Notebook: OCCn1cc(-c2cnc3nnn(Cc4ccc5ncccc5c4)c3n2)cn1 , %Inh read as 0

###

For each record, write down the corresponding %Inh.
- System: TLK2
- CONDITION CONTEXT: concentration: 1 μM,replicates: in singlicate; n = 1
Numeric only. Scale: %

Record NC(=O)Nc1sc(-c2ccc(F)cc2)cc1C(N)=O / TLK2, %Inh recorded as 0

Measured %Inh (TLK2), entry Cc1ccc(CC(=O)N2CCc3cc(-c4cn(C)c5ncnc(N)c45)ccc32)cc1 : 0

Record Cn1ccc2ncnc(Oc3ccc(NC(=O)Nc4cccc(C(F)(F)F)c4)c(Cl)c3)c21 has TLK2 %Inh equal to 0

Form: item CN(c1cccc(CNc2nc(Nc3ccc4c(c3)CC(=O)N4)ncc2C(F)(F)F)c1)S(C)(=O)=O ; test system TLK2; %Inh: 3

All values here come from paper PMC5540273.
